Cited source for all entries: patent US20230416305A1

# MEASUREMENT_TARGET: T1, ANK1 (α-helical region of the ANK domain of N1ICD) (UniProt P46531 1927-1956)
# T1 chain: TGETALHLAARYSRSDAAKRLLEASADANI
# ASSAY_PROTOCOL: SPR
READOUT: Kd

>>> result("YAKRIFYQLLSKEL [AH2 (α-helix 2 of N1DARP)]")
"4.34 µM"
